FYI, the data here is from patent US9688764B2.

Collected Percent Blocking at 100 nM Antibody values appear next to each entry.
- System: HEK293/hPRLR/STAT5-Luc cells (human PRLR)
- Protocol notes: STAT5-Luc luciferase reporter assay, blocking of PRL-mediated receptor activation
- Format: cell-based
- Assay setup: 100 nM antibody, 5 nM PRL
Measured endpoint: Percent Blocking at 100 nM Antibody (%)

| Molecule | Value |
| --- | --- |
| H1H6795P: anti-PRLR antibody, human IgG1 Fc; HCVR/LCVR SEQ ID NOs 162/170 (antibody, V domains shown, human IgG1 Fc) VH: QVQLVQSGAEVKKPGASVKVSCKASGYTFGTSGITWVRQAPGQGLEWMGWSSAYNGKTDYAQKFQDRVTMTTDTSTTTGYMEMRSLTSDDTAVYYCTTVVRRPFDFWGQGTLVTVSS VL: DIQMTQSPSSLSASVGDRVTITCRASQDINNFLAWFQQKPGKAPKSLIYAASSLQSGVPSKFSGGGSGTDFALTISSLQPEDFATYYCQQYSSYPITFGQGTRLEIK | 0 |
| H1H6966N: human IgG1 Fc form of H2M6966N; anti-PRLR; HCVR/LCVR SEQ ID NOs 338/346 (antibody, V domains shown, human IgG1 Fc) VH: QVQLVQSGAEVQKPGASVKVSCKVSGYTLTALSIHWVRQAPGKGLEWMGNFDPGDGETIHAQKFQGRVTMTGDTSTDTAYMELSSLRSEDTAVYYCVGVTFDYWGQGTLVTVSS VL: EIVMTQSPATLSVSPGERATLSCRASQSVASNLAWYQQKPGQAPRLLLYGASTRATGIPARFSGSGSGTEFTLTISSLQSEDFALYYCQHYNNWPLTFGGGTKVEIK | 54 |
| H1H6801P: anti-PRLR antibody, human IgG1 Fc; HCVR/LCVR SEQ ID NOs 210/218 (antibody, V domains shown, human IgG1 Fc) VH: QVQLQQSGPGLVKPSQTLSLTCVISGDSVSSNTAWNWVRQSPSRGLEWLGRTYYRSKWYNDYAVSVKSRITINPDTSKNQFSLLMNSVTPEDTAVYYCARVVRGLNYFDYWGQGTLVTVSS VL: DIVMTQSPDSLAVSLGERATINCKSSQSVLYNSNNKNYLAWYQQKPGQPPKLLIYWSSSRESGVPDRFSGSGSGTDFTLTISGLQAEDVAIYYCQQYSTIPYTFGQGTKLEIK | 100 |
| H1H6793P: anti-PRLR antibody, human IgG1 Fc; HCVR/LCVR SEQ ID NOs 146/154 (antibody, V domains shown, human IgG1 Fc) VH: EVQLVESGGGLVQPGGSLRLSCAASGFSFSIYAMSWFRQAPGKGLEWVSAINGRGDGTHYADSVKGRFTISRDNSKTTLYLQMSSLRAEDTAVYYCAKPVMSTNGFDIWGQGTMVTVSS VL: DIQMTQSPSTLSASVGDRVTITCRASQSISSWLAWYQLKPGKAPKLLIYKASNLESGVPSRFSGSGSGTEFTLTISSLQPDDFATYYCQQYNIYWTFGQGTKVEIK | 65 |
| H1H6803P: anti-PRLR antibody, human IgG1 Fc; HCVR/LCVR SEQ ID NOs 226/234 (antibody, V domains shown, human IgG1 Fc) VH: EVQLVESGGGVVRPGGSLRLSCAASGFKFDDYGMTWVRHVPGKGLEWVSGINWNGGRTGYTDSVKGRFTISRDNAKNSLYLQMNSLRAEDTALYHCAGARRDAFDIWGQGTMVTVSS VL: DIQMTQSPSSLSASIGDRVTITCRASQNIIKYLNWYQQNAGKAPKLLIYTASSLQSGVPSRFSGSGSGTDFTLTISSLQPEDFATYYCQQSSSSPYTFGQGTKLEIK | 100 |
| H1H6960N: human IgG1 Fc form of H2M6960N; anti-PRLR; HCVR/LCVR SEQ ID NOs 322/330 (antibody, V domains shown, human IgG1 Fc) VH: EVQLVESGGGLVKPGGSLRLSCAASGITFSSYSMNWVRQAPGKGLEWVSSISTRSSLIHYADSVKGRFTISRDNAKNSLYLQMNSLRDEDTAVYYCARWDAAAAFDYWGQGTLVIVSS VL: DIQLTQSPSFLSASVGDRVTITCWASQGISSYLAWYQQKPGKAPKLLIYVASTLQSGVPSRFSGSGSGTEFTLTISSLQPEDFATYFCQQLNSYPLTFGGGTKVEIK | 100 |
| H1H6800P: anti-PRLR antibody, human IgG1 Fc; HCVR/LCVR SEQ ID NOs 194/202 (antibody, V domains shown, human IgG1 Fc) VH: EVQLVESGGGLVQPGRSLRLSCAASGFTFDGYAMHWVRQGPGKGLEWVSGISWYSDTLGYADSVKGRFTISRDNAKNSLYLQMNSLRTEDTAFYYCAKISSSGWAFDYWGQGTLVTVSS VL: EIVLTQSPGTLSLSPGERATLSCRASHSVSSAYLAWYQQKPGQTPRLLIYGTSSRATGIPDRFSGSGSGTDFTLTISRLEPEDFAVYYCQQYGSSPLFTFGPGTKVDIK | 100 |
| H1H6762P: anti-PRLR antibody, human IgG1 Fc; HCVR/LCVR SEQ ID NOs 2/10 (antibody, V domains shown, human IgG1 Fc) VH: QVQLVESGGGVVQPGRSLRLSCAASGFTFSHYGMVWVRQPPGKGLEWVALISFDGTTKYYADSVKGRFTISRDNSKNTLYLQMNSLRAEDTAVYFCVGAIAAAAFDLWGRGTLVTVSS VL: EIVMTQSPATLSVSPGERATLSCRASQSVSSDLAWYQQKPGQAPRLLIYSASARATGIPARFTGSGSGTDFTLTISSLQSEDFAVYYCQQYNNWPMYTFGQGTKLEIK | 100 |
